This section presents compounds with their documented % Phosphatase Activity (compared to DMSO) PRL-2 values.
# study-system: recombinant PRL-2 (Homo sapiens)
# Construct: 6xHis (N, cleaved yes); made in house; host or cells: E. coli One Shot BL21 Star
# Sequence (Q12974 whole entry): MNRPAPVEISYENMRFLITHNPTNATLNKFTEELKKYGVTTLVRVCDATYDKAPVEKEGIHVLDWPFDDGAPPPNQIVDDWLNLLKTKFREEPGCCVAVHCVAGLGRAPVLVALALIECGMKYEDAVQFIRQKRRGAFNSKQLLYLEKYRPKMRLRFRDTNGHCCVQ
# protocol-notes: In vitro phosphatase assay (DiFMUP hydrolysis), PRL-2;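 note: PRL-2 activity read as DiFMUP hydrolysis after 20 min at room temperature with drug, enzyme first pre-reduced at 4 °C for 20 min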
# Type: biochemical
# experimental-conditions: FDA-approved drug screen; compared to DMSO
Structures can show the parent of a compound that is named as a salt.
Value expressed in %; do not type the unit.

These solved cases illustrate the format of a correct answer.
CCOC(=O)n1ccn(C)c1=S	114
CCCCCCCC(=O)N[C@H](CN1CCCC1)[C@H](O)c1ccc2c(c1)OCCO2.O=C(O)C(O)C(O)C(=O)O [Eliglustat Tartrate]	91
N=C(N)c1ccc2cc(OC(=O)c3ccc(N=C(N)N)cc3)ccc2c1 [Nafamostat Mesylate]	264
COCCCC/C(=N\OCCN)c1ccc(C(F)(F)F)cc1 [Fluvoxamine maleate]	100
O=C(O)c1ccccc1Nc1cccc(C(F)(F)F)c1	85

Next:
[Q] Tell me the measured % Phosphatase Activity (compared to DMSO) PRL-2 of CC(C(=O)O)c1cccc(C(=O)c2ccccc2)c1 (stereo not shown) , please.
[A] 95
